- measured_on: UniProt:P10632
- Sequence (P10632 whole entry): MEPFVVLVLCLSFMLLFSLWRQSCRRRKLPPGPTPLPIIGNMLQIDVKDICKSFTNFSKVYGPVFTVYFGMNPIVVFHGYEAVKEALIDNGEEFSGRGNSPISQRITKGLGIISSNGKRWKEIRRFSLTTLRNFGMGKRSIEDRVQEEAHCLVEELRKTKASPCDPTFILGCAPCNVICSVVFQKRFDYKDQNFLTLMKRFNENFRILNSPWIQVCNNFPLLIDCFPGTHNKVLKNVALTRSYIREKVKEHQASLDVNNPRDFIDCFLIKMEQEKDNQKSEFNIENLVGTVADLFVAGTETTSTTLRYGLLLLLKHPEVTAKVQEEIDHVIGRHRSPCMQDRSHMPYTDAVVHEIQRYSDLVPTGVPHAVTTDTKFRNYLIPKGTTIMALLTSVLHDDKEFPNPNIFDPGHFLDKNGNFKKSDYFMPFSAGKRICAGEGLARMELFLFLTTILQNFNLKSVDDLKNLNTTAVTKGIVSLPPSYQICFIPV
pIC50: −log10 of the molar value.
measurement_label: pIC50

Quick check: pIC50 of C=CC(=O)N1CCC(Oc2cc3c(Nc4ccc(Cl)c(Cl)c4F)ncnc3cc2OC)CC1 ?
~5.00
